# target.or.test.system: Aβ42 (Homo sapiens, UniProt P05067)
# Sequence (P05067 672-713): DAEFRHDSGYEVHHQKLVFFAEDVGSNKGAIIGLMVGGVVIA
# experiment: Th-T (thioflavin-T) assay of Aβ42 aggregation
# Assay type: biochemical
# measurement.parameters: concentration 10, unit not given; time-course reading M136
Define the label as Fulfilled when Th-T fluorescence of Aβ42 with compound, mean of three wells (Fig. 7a source data) is strictly less than 2 and as Not fulfilled in all remaining cases.

Below are worked cases with known answers.
>>> label("C=C1CCC2C(C)(CCC=C(C)C)C(O)CCC2(C)C1Cc1c(OC)oc(C)c(C(=O)OC)c1=O (centres unmarked)")
"Not fulfilled"
>>> label("C=C1CC[C@@H]2[C@](C)(CC[C@H]3O[C@H](C=C(C)C)C[C@@]23C)[C@@H]1Cc1c(OC)oc(CO)c(C(=O)OC)c1=O")
"Fulfilled"
>>> label("C=C1CC[C@@H]2[C@](C)(CC[C@H]3O[C@H](C=C(C)C)C[C@@]23C)[C@@H]1Cc1c(OC)oc(CO)c(C)c1=O")
"Not fulfilled"
>>> label("C=C1CCC2C(C)(CCC=C(C)C)C(O)CCC2(C)C1Cc1c(OC)oc(CO)c(C(=O)OC)c1=O (centres unmarked)")
"Fulfilled"

Now consider the entry below.
Prompt line: Given C=C1CCC2C(C)(CCC=C(C)C)C(O)CCC2(C)C1Cc1c(OC)oc(CO)c(C)c1=O (centres unmarked) , is recorded Th-T fluorescence of Aβ42 with compound, mean of three wells (Fig. 7a source data) strictly lower than 2?
Response line: Not fulfilled

###

Form field: Th-T fluorescence, mean of three wells (one value per entry).
# target.or.test.system: Aβ42 (Homo sapiens, UniProt P05067)
# experiment: Th-T (thioflavin-T) assay of Aβ42 aggregation
# Format: biochemical
# measurement.parameters: Supplementary Fig. 47 source data; measurement M39 of time course
Output: the number by itself.

Past entries and their recorded results:
>>> observed_measurement("C=C1CC[C@H]2[C@]3(C)C[C@H](C=C(C)C)O[C@H]3CC[C@]2(C)[C@@H]1Cc1c(OC)oc(CO)c(C)c1=O")
3.823
>>> observed_measurement("C=C1CCC2C(C)(CC(=O)C=C(C)C)C(O)CCC2(C)C1Cc1c(O)c(C)c(C)oc1=O (stereo not drawn)")
3.507
>>> observed_measurement("C=C1CC[C@H]2[C@]3(C)C[C@@H](C=C(C)C)O[C@H]3CC[C@]2(C)[C@@H]1Cc1c(OC)oc(CO)c(C)c1=O")
3.376
>>> observed_measurement("CC(C)=CCC/C(C)=C/CC/C(C)=C/CC/C(C)=C/Cc1c(O)c(C)c(C)oc1=O")
2.741
>>> observed_measurement("C=C1CCC2C(C)(CC(=O)C=C(C)C)C(O)CCC2(C)C1Cc1c(OC)oc(CO)c(C)c1=O (stereo not drawn)")
3.449

Query molecule follows.
Prompt line: Query: Th-T fluorescence, mean of three wells; subject: C=C1CCC2C3(C)CC(C=C(C)C)OC3CCC2(C)C1Cc1c(OC)oc(C)c(C)c1=O (stereo not drawn)
Response line: 3.926

###

# target.or.test.system: Aβ42 (Homo sapiens, UniProt P05067)
# experiment: Th-T (thioflavin-T) assay of Aβ42 aggregation
# Format: biochemical
# measurement.parameters: compound at 10; reading M60 of time course
parameter: Th-T fluorescence, mean of three wells
Output: the number by itself.

Past entries and their recorded results:
>>> observed_measurement("C=C1CC[C@@H]2[C@](C)(CC[C@H]3O[C@H](C=C(C)C)C[C@@]23C)[C@@H]1Cc1c(OC)oc(CO)c(C(=O)OC)c1=O [Compound 21]")
0.3831
>>> observed_measurement("C=C1CCC2C(C)(CCC=C(C)C)C(O)CCC2(C)C1Cc1c(OC)oc(CO)c(C(=O)OC)c1=O (centres unmarked) [Compound 13]")
1.541
>>> observed_measurement("C=C1CCC2C(C)(CCC=C(C)C)C(O)CCC2(C)C1Cc1c(OC)oc(CO)c(C)c1=O (centres unmarked) [Compound 12]")
3.452
>>> observed_measurement("C=C1CC[C@@H]2[C@](C)(CC[C@H]3O[C@H](C=C(C)C)C[C@@]23C)[C@@H]1Cc1c(OC)oc(CO)c(C)c1=O [Compound 20]")
3.452

Query compound follows.
Prompt line: Query: Th-T fluorescence, mean of three wells; subject: C=C1CCC2C(C)(CCC=C(C)C)C(O)CCC2(C)C1Cc1c(OC)oc(C)c(C(=O)OC)c1=O (centres unmarked) [Compound 14]
Response line: 2.6643
